molecular target: panel of 442 kinases (Homo sapiens); construct: purchased KINOMEscan; type: binding; settings: Compound Concentration 10 µM
PARAMETER_MEASURED: KINOMEscan: CSNK1E
Field format: numeric only.

Some entries whose results are on file:
SUBSTANCE_SMILES | SYSTEM | RECORDED_RESULT
COc1cc(C(=O)N2CCC(N3CCN(C)CC3)CC2)ccc1Nc1ncc2c(n1)N(C1CCCC1)c1ccccc1C(=O)N2C | panel of 442 kinases (Homo sapiens) | 100
CCOc1cc(C(=O)N2CCC(N3CCN(C)CC3)CC2)ccc1Nc1ncc2c(n1)N(C1CCCC1)c1ccccc1C(=O)N2C | panel of 442 kinases (Homo sapiens) | 100
COc1cc(C(=O)N2CCC(N3CCN(C)CC3)CC2)ccc1Nc1ncc2c(n1)N1CCc3cccc(c31)C(=O)N2C | panel of 442 kinases (Homo sapiens) | 81

# compound COc1cc(C(=O)N2CCC(N3CCN(C)CC3)CC2)ccc1Nc1ncc2c(n1)N(C)c1ccccc1C(=O)N2C ; its KINOMEscan: CSNK1E = 95

---

biological target: panel of 442 kinases (Homo sapiens); construct: purchased KINOMEscan; type: binding; conditions: Compound Concentration 10 µM
PARAMETER_MEASURED: KINOMEscan: RIPK2

COMPOUND | PARAMETER_MEASURED | RECORDED_RESULT
COc1cc(C(=O)N2CCC(N3CCN(C)CC3)CC2)ccc1Nc1ncc2c(n1)N(C1CCCC1)c1ccccc1C(=O)N2C [Compound 25] | KINOMEscan: RIPK2 | 87
COc1cc(C(=O)N2CCC(N3CCN(C)CC3)CC2)ccc1Nc1ncc2c(n1)N1CCc3cccc(c31)C(=O)N2C [Compound 24] | KINOMEscan: RIPK2 | 95
COc1cc(C(=O)N2CCC(N3CCN(C)CC3)CC2)ccc1Nc1ncc2c(n1)N(C)c1ccccc1C(=O)N2C [15 (LRRK2-IN-1)] | KINOMEscan: RIPK2 | 100

Considering CCOc1cc(C(=O)N2CCC(N3CCN(C)CC3)CC2)ccc1Nc1ncc2c(n1)N(C1CCCC1)c1ccccc1C(=O)N2C [Compound 26] , its KINOMEscan: RIPK2 with panel of 442 kinases (Homo sapiens) was recorded as 100

---

molecular target: panel of 442 kinases (Homo sapiens); construct: purchased KINOMEscan; assay type: binding; parameters: unit: % Ctrl; conditions: Compound Concentration 10 µM
PARAMETER_MEASURED: KINOMEscan: ABL1-nonphosphorylated
Field format: numeric only.

Some entries whose results are on file:
COMPOUND | RECORDED_RESULT
COc1cc(C(=O)N2CCC(N3CCN(C)CC3)CC2)ccc1Nc1ncc2c(n1)N(C)c1ccccc1C(=O)N2C [15 (LRRK2-IN-1)] | 100
COc1cc(C(=O)N2CCC(N3CCN(C)CC3)CC2)ccc1Nc1ncc2c(n1)N(C1CCCC1)c1ccccc1C(=O)N2C [Compound 25] | 90
CCOc1cc(C(=O)N2CCC(N3CCN(C)CC3)CC2)ccc1Nc1ncc2c(n1)N(C1CCCC1)c1ccccc1C(=O)N2C [Compound 26] | 96

# compound COc1cc(C(=O)N2CCC(N3CCN(C)CC3)CC2)ccc1Nc1ncc2c(n1)N1CCc3cccc(c31)C(=O)N2C [Compound 24] ; its KINOMEscan: ABL1-nonphosphorylated = 60

---

Target: panel of 442 kinases (Homo sapiens)
Construct: purchased KINOMEscan
Format: binding
Conditions: Compound Concentration 10 µM
From the text: We assessed the selectivity of members of this scaffold using the KINOMEscan methodology across a near comprehensive panel of 442 kinases [[18,27]].
As shown below, each of these compounds has a reported KINOMEscan: MELK value.
Field format: numeric only.

COMPOUND | RECORDED_RESULT
COc1cc(C(=O)N2CCC(N3CCN(C)CC3)CC2)ccc1Nc1ncc2c(n1)N1CCc3cccc(c31)C(=O)N2C [Compound 24] | 62
COc1cc(C(=O)N2CCC(N3CCN(C)CC3)CC2)ccc1Nc1ncc2c(n1)N(C)c1ccccc1C(=O)N2C [15 (LRRK2-IN-1)] | 100
COc1cc(C(=O)N2CCC(N3CCN(C)CC3)CC2)ccc1Nc1ncc2c(n1)N(C1CCCC1)c1ccccc1C(=O)N2C [Compound 25] | 100

# compound CCOc1cc(C(=O)N2CCC(N3CCN(C)CC3)CC2)ccc1Nc1ncc2c(n1)N(C1CCCC1)c1ccccc1C(=O)N2C [Compound 26] ; its KINOMEscan: MELK = 100

---

target: panel of 442 kinases (Homo sapiens, UniProt Q9P2K8, S808G); construct: purchased KINOMEscan; assay type: binding; settings: Compound Concentration 10 µM
Sequence (Q9P2K8 whole entry S808G): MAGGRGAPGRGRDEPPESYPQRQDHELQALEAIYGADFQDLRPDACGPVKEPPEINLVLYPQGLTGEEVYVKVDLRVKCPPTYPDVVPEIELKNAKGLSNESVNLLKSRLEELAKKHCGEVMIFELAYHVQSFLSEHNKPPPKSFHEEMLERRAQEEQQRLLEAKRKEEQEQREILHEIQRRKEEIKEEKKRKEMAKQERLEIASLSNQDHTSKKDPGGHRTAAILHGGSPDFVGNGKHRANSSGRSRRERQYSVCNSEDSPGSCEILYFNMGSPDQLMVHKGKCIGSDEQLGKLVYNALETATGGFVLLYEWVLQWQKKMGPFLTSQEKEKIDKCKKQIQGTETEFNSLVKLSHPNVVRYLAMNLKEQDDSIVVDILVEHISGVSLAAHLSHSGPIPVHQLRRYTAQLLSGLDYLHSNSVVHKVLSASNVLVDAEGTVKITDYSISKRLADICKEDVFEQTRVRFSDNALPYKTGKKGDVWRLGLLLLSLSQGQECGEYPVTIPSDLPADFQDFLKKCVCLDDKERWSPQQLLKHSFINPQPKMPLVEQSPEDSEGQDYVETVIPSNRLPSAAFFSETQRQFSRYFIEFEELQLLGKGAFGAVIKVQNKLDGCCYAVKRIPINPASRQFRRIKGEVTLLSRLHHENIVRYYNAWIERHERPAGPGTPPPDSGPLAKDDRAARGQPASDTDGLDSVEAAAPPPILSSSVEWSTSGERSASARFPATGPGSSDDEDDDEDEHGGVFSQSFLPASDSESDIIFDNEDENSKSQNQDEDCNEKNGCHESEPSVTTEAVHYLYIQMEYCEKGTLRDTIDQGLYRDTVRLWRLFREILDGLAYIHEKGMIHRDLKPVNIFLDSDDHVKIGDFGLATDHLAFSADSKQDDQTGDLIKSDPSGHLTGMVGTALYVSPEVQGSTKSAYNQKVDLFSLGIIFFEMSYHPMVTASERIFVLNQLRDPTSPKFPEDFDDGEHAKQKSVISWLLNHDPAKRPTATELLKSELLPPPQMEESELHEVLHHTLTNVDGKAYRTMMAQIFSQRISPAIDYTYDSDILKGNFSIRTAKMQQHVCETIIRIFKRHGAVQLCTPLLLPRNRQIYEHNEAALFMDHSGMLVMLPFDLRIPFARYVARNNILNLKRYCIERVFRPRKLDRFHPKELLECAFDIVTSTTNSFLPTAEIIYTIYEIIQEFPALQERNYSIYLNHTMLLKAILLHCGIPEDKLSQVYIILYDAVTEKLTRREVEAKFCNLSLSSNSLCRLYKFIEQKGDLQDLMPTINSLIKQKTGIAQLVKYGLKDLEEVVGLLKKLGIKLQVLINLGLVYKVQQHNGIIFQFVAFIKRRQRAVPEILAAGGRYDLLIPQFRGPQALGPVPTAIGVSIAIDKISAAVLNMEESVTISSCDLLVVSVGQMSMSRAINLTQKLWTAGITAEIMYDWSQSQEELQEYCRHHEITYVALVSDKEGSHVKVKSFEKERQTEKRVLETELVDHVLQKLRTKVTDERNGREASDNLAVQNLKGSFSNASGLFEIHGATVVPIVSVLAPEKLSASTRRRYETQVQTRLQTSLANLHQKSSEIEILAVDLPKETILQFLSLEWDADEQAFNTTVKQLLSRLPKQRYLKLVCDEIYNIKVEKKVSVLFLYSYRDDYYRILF
PARAMETER_MEASURED: KINOMEscan: GCN2(Kin.Dom.2,S808G)
Field format: numeric only.

MOLECULE | PARAMETER_MEASURED | RECORDED_RESULT
CCOc1cc(C(=O)N2CCC(N3CCN(C)CC3)CC2)ccc1Nc1ncc2c(n1)N(C1CCCC1)c1ccccc1C(=O)N2C [Compound 26] | KINOMEscan: GCN2(Kin.Dom.2,S808G) | 95

# molecule COc1cc(C(=O)N2CCC(N3CCN(C)CC3)CC2)ccc1Nc1ncc2c(n1)N(C1CCCC1)c1ccccc1C(=O)N2C [Compound 25] ; its KINOMEscan: GCN2(Kin.Dom.2,S808G) = 100

# molecule COc1cc(C(=O)N2CCC(N3CCN(C)CC3)CC2)ccc1Nc1ncc2c(n1)N1CCc3cccc(c31)C(=O)N2C [Compound 24] ; its KINOMEscan: GCN2(Kin.Dom.2,S808G) = 79

# molecule COc1cc(C(=O)N2CCC(N3CCN(C)CC3)CC2)ccc1Nc1ncc2c(n1)N(C)c1ccccc1C(=O)N2C [15 (LRRK2-IN-1)] ; its KINOMEscan: GCN2(Kin.Dom.2,S808G) = 95

---

biological target: panel of 442 kinases (Homo sapiens); construct: purchased KINOMEscan; type: binding; parameters: unit: % Ctrl; conditions: Compound Concentration 10 µM
As shown below, each of these compounds has a reported KINOMEscan: BRSK2 value.
Field format: numeric only.

SUBSTANCE_SMILES | RECORDED_RESULT
COc1cc(C(=O)N2CCC(N3CCN(C)CC3)CC2)ccc1Nc1ncc2c(n1)N1CCc3cccc(c31)C(=O)N2C | 81
CCOc1cc(C(=O)N2CCC(N3CCN(C)CC3)CC2)ccc1Nc1ncc2c(n1)N(C1CCCC1)c1ccccc1C(=O)N2C | 92
COc1cc(C(=O)N2CCC(N3CCN(C)CC3)CC2)ccc1Nc1ncc2c(n1)N(C1CCCC1)c1ccccc1C(=O)N2C | 80

# compound COc1cc(C(=O)N2CCC(N3CCN(C)CC3)CC2)ccc1Nc1ncc2c(n1)N(C)c1ccccc1C(=O)N2C ; its KINOMEscan: BRSK2 = 64

---

As shown below, each of these compounds has a reported KINOMEscan: BMPR1B value.
Biological target: panel of 442 kinases (Homo sapiens)
Construct: purchased KINOMEscan
Format: binding
Conditions: Compound Concentration 10 µM
Description: We assessed the selectivity of members of this scaffold using the KINOMEscan methodology across a near comprehensive panel of 442 kinases [[18,27]].
Field format: numeric only.

Some entries whose results are on file:
COMPOUND | RECORDED_RESULT
COc1cc(C(=O)N2CCC(N3CCN(C)CC3)CC2)ccc1Nc1ncc2c(n1)N(C1CCCC1)c1ccccc1C(=O)N2C [Compound 25] | 98
COc1cc(C(=O)N2CCC(N3CCN(C)CC3)CC2)ccc1Nc1ncc2c(n1)N1CCc3cccc(c31)C(=O)N2C [Compound 24] | 97
CCOc1cc(C(=O)N2CCC(N3CCN(C)CC3)CC2)ccc1Nc1ncc2c(n1)N(C1CCCC1)c1ccccc1C(=O)N2C [Compound 26] | 100

Considering COc1cc(C(=O)N2CCC(N3CCN(C)CC3)CC2)ccc1Nc1ncc2c(n1)N(C)c1ccccc1C(=O)N2C [15 (LRRK2-IN-1)] , its KINOMEscan: BMPR1B with panel of 442 kinases (Homo sapiens) was recorded as 76

---

target: panel of 442 kinases (Homo sapiens); construct: purchased KINOMEscan; assay type: binding; conditions: Compound Concentration 10 µM
PARAMETER_MEASURED: KINOMEscan: NEK2
Field format: numeric only.

SUBSTANCE_SMILES | PARAMETER_MEASURED | RECORDED_RESULT
CCOc1cc(C(=O)N2CCC(N3CCN(C)CC3)CC2)ccc1Nc1ncc2c(n1)N(C1CCCC1)c1ccccc1C(=O)N2C | KINOMEscan: NEK2 | 86
COc1cc(C(=O)N2CCC(N3CCN(C)CC3)CC2)ccc1Nc1ncc2c(n1)N1CCc3cccc(c31)C(=O)N2C | KINOMEscan: NEK2 | 62
COc1cc(C(=O)N2CCC(N3CCN(C)CC3)CC2)ccc1Nc1ncc2c(n1)N(C1CCCC1)c1ccccc1C(=O)N2C | KINOMEscan: NEK2 | 88

Turning now to a further compound:
Considering COc1cc(C(=O)N2CCC(N3CCN(C)CC3)CC2)ccc1Nc1ncc2c(n1)N(C)c1ccccc1C(=O)N2C , its KINOMEscan: NEK2 with panel of 442 kinases (Homo sapiens) was recorded as 100
